Entries and their % inhibition values follow.
System Name: T1, recombinant human EGFR extracellular domain with 6xHis (human, UniProt P00533 25-645)
T1 construct: In-house produced; also called 6xHis EGFR ECD; soluble human EGFR ECD; not shown: 6xHis tag
Test Details: SPR competition, competitor 1024
Write the answer as a number in %, unit excluded.

Here is how some binders turned out for % inhibition.
| Binder | Endpoint Label | Numeric Result |
| --- | --- | --- |
| antibody 1308 (antibody, human IgG1, kappa, V domains shown, Chimeric IgG1 kappa) VH: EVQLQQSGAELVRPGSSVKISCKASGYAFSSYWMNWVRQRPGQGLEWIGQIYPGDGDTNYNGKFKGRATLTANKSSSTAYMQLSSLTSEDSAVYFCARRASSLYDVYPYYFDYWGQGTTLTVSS VL: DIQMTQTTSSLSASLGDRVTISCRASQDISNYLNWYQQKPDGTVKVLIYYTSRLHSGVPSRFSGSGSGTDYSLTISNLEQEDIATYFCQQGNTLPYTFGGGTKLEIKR | % inhibition | 3 |
| antibody 1257 (antibody, human IgG1, kappa, V domains shown, Chimeric IgG1 kappa) VH: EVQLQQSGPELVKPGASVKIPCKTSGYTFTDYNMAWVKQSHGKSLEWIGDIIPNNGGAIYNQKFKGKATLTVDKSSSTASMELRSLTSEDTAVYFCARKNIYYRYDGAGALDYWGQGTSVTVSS VL: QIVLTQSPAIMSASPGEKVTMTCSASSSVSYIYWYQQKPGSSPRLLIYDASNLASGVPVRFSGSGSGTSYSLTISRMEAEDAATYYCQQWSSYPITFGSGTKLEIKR | % inhibition | 17 |

Turning now to a further record.
Entry antibody 1030 (antibody, human IgG1, kappa, V domains shown, Chimeric IgG1 kappa) VH: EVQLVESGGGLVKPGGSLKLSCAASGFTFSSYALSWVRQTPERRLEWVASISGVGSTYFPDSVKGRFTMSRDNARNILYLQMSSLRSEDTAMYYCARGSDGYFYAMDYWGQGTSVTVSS VL: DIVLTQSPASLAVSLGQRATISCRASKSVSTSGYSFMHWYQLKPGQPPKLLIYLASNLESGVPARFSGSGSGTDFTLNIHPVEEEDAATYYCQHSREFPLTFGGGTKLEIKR , % inhibition reported as -1
